Reference source for all entries: paper PMC4336329

# tested target: human ether-à-go-go-related gene (hERG) potassium channel (human, UniProt Q12809);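 note: peak tail current of the secondary pulse compared with the same well before compound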
# Sequence (Q12809 whole entry, looked up): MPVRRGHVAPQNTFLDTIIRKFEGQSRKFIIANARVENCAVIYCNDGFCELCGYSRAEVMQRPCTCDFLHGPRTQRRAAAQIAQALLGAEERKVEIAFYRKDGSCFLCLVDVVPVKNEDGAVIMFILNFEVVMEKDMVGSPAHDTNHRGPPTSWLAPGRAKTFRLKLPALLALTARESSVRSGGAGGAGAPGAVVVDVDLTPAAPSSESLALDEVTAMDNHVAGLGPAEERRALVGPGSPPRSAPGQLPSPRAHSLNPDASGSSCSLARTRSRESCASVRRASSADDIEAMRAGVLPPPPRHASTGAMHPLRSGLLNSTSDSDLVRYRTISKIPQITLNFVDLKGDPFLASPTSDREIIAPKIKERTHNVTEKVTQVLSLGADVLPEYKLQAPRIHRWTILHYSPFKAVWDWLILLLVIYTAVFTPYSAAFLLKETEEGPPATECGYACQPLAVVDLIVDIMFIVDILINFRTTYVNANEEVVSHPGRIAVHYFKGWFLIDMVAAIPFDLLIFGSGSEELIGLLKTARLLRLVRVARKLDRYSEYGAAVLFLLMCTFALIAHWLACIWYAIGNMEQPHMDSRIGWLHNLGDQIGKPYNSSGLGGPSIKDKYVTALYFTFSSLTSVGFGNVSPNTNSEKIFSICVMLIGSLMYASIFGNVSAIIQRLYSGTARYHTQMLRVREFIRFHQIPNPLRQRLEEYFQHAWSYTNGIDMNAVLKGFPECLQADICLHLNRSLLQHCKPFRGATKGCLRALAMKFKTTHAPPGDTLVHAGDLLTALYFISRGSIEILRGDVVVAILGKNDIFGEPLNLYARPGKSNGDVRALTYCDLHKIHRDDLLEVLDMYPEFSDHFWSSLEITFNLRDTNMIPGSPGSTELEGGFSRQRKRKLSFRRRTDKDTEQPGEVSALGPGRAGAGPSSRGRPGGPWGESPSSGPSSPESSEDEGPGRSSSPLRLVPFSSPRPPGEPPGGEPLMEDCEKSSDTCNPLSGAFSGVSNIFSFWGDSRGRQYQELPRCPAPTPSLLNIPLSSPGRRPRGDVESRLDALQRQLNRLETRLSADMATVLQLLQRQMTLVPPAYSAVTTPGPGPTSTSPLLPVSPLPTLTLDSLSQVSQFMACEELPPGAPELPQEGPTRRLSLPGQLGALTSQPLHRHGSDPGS
# procedure details: primary screen, population patch clamp on CHO cells stably expressing hERG; higher = less effect of the substance
The whole screen tested about 310,000 compounds, of which about 14,000 (4.5%) showed an effect of 50% or more. Effects have a minus sign here. The entries come from a sample that favours strong results as a whole.
Short version: hERG current change (%, negative = inhibition) at 10uM at least -10% is 1, less is 0.

>>> classification("CC(CC1CC(C)(C)OC1=O)C(=O)Nc1ccc([N+](=O)[O-])cc1 (stereo not drawn)")
0
>>> classification("O=C(Nc1ccccc1OC(F)F)c1cc2c(s1)CCC2")
0
>>> classification("COC(=O)c1ccc(N2CCN(c3ccccc3)CC2)c(NC(=O)C2CC2)c1")
0
>>> classification("O=C(NCc1ccccn1)c1cccc(NS(=O)(=O)c2ccc(Br)cc2)c1")
0
>>> classification("Nc1cc(N)cc(C(=O)Nc2ccc3c(c2)C(=O)NC3=O)c1")
1
>>> classification("CCc1ccccc1S(=O)(=O)Cc1ccc(C(=O)NCC2CCCO2)o1 (stereo not drawn)")
0
>>> classification("CCOC(=O)C(Sc1ncn[nH]1)c1ccccc1 (stereo not drawn)")
1
>>> classification("O=C(Nc1ccccc1Cl)NC1(C(=O)N2CCOCC2)CCCCC1")
1
>>> classification("CC(=O)c1c(N)n(C)c(=O)n(C)c1=O")
1
>>> classification("O=c1oc(-c2ccc([N+](=O)[O-])cc2)nc2ccccc12")
1
>>> classification("CCCNC(=O)C/C(C)=N/NC(=O)C(=O)Nc1ccccn1")
1
>>> classification("Cn1c(NN)nc2sc3c(c2c1=O)CC(C)(C)OC3")
1
>>> classification("CN=C(Nc1ccccc1OC)SC1CC(=O)N(c2ccc(C(=O)OC)cc2)C1=O (stereo not drawn)")
0
>>> classification("COc1ccccc1NC(=O)CON=C(N)CC(=O)NC1CCCCC1")
1
>>> classification("CN1CCN(c2ccc(NC(=S)NC(=O)/C=C/c3ccco3)cc2)CC1")
1
>>> classification("CC1(C)CC(CC(=O)Nc2ccc([N+](=O)[O-])cc2)C(=O)O1 (stereo not drawn)")
0
>>> classification("CC1(C)CC(CC(=O)NC(=S)Nc2ccc([N+](=O)[O-])cc2)C(=O)O1 (stereo not drawn)")
0
>>> classification("CCc1ccccc1OCC(=O)N(CC)CC(=O)NCc1ccc(F)cc1")
1
>>> classification("Cc1occc1C(=O)N1CCCC(Nc2ccc(F)cc2)C1 (stereo not drawn)")
1
>>> classification("CCOc1ccc(NC(=O)CCN2C(=O)CSc3ccccc32)cc1")
0

* * *

# tested target: human ether-à-go-go-related gene (hERG) potassium channel (human, UniProt Q12809);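 note: peak tail current of the secondary pulse compared with the same well before compound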
# procedure details: primary screen, population patch clamp on CHO cells stably expressing hERG; higher = less effect of the substance
The whole screen tested about 310,000 compounds, of which about 14,000 (4.5%) showed an effect of 50% or more. The effect is printed as a negative number. This is one part of a sample in which strong results are shown more often than they occur.
observed property: hERG current change (%, negative = inhibition) at 10uM (%)

>>> value_observed("CCc1ccc(Nc2n[n+](-c3ccccc3)c(-c3ccc(SC)cc3)s2)cc1.[Cl-]")
-2.72
>>> value_observed("CN(C)C(=O)CCC(=O)N(C)CC1CCCN(CCc2ccc(F)cc2)C1 (stereo not shown)")
-38.1
>>> value_observed("CC(C)(O)CC[C@@H](O)[C@](C)(O)C1CC[C@@]2(O)C3=CC(=O)[C@]4(O)C[C@@H](O)[C@@H](O)C[C@]4(C)C3CC[C@]12C (stereo partly shown)")
30.1
>>> value_observed("O=C1CC(N2CCC(c3nc4ccccc4o3)CC2)C(=O)N1c1ccc(Cl)c(C(F)(F)F)c1 (stereo not shown)")
6.87
>>> value_observed("CN(CC1CCCN(CCc2ccc(F)cc2)C1)C(=O)CCC(F)(F)F (stereo not shown)")
-63
>>> value_observed("CCc1ccc(Nc2n[n+](-c3ccccc3)c(-c3c(Cl)cccc3Cl)s2)cc1.[Cl-]")
-27.5
>>> value_observed("Cc1cc(C(=O)Nc2ccccn2)cs1")
3.35
>>> value_observed("COc1ccc(Nc2nc(-c3ccccc3)nc3ccccc23)c(OC)c1")
-1.67
>>> value_observed("CN(CC1CCCN(CCc2ccc(Cl)cc2)C1)C(=O)CC(F)(F)F (stereo not shown)")
-60.5
>>> value_observed("CCOC(=O)C1CCCN(C(=O)c2cc(Nc3ccc(OC)c(OC)c3)nc3ccccc23)C1 (stereo not shown)")
-14.9
>>> value_observed("CC(=O)c1cccc(NC(=O)c2ccc3c(c2)C(=O)N(Cc2cccnc2)C3=O)c1")
-9.85
>>> value_observed("O=C(COc1ccccc1)N1CCN(CCN2C(=O)c3cccc4cccc(c34)C2=O)CC1")
-8.43
>>> value_observed("Cc1ccc(S(=O)(=O)n2nc(C)c(Br)c2C)c(C)c1C")
20.8
>>> value_observed("Cc1ccc(C)c(NC(=O)c2cc3c([nH]c4ccccc43)c(C)n2)c1")
5.7
>>> value_observed("COc1ccc([C@H]2CC(=O)C=C(c3ccc(F)cc3OCc3ccccc3)C2)cc1OC")
12.1
>>> value_observed("Cc1[nH]nc(SCC(=O)N2CCCCCC2)c1[N+](=O)[O-]")
3.4
>>> value_observed("COc1ccc(Nc2nc(N3CCCC3)nc3ccccc23)c(OC)c1")
-44.6
>>> value_observed("CCc1ccc(Nc2n[n+](-c3ccccc3)c(/C=C/c3ccccc3)s2)cc1.[Cl-]")
-69
>>> value_observed("CCOCCCNC(C(=O)Nc1ccc(OC)c(Cl)c1)c1ccccc1 (stereo not shown)")
-35.1
